Overview of reported activation across a group of compounds:
Target: Muscarinic acetylcholine receptor M5 (Homo sapiens) (UniProt P08912)
Sequence (P08912 whole entry, looked up): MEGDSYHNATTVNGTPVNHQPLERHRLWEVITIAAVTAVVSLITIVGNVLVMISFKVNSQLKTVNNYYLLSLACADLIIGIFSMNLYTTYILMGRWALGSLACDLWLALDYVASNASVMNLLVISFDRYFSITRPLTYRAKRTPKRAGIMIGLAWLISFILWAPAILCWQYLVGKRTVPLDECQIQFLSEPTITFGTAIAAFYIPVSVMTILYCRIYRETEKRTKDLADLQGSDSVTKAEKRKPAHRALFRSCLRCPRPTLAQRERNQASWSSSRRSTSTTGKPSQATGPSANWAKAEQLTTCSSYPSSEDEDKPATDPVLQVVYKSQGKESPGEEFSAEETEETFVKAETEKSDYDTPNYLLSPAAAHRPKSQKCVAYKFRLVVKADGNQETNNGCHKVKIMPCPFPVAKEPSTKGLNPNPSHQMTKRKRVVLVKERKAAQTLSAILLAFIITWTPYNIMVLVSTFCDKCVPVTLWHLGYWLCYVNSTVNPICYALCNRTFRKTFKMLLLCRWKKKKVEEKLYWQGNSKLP
Assay: human M5 muscarinic receptor positive allosteric modulators, primary screen, CHO-K1 cells, Fluo-8 calcium fluorescence (AID 624038)
Conditions: CHO-K1 hM5, Fluo-8 calcium, ACh EC20 PAM; at 3 µM; stronger effect = higher value; 0% = ACh EC20, 100% = ACh EC100
Out of some 360,000 compounds screened, about 1,100 (0.31%) were called active. The list comes from a sample in which actives are over-represented; it also holds close analogues and randomly drawn compounds.
attributeMeasured: activation (%)

1. O=C(O)c1ccc(COCC(F)(F)F)cc1; -0.76
2. COC(=O)c1ccc(Oc2nc(NC(C)C)nc(SC)n2)cc1; 2.31
3. CC1(C)CC(=O)C(C=NCCN2CCN(C(=S)Nc3cccc(Cl)c3)CC2)=C(O)C1; 0.98
4. Cc1cc(C)nc(-n2nc(C)cc2NC(=O)c2ccc(F)cc2F)n1; 3.36
5. Cc1cc(N/N=C\c2ccc(Br)cc2)nc(-n2nc(C)cc2C)n1; 20.4
6. Cc1cc(C)n(-c2nnc(N3CCN(c4ccccc4)CC3)nn2)n1; -0.36
7. COc1cc(Cn2c3ccc(NC(=O)CC(C)c4ccccc4)cc3c(=O)n2C)ccc1F (stereo unspecified); -5.77
8. Cc1cccc(C(=O)NC2CCN(CC(=O)Nc3cccc(Cl)c3)CC2)c1; -2.77
9. C=CCN1C(=O)c2ccc(C(=O)N3CCC(C(=O)OCC)CC3)cc2C1=O; 44.4
10. CCOC(=O)C1CCCN(C(=O)c2ccc(N(C)C)cc2)CC1 (stereo unspecified); -2.3
11. CCOC(=O)C1CCCN(C(=O)c2ccc(C)c(F)c2)CC1 (stereo unspecified); 0.17

====

Molecular target: Muscarinic acetylcholine receptor M5 (Homo sapiens)
Assay: human M5 muscarinic receptor positive allosteric modulators, primary screen, CHO-K1 cells, Fluo-8 calcium fluorescence (AID 624038)
Conditions: CHO-K1 hM5, Fluo-8 calcium, ACh EC20 PAM; at 3 µM; 0% = ACh EC20, 100% = ACh EC100
Hit rate of the full screen: of about 360,000 compounds, about 1,100 (0.31%) were called active.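 How the source made its calls: active means activation above the run cutoff, the mean activation of all test compounds plus 3 SD (cut at about 18% in these data); inactive means the rest.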 The sample holds actives, similar compounds and a random draw of the others, so the mix is not that of the screen.
Classes used: yes (1) for active, no (0) for inactive

1) Cc1cc(C)n(-c2cc(Oc3ccccc3)ncn2)n1; yes (1)
2) O=C(NNS(=O)(=O)c1ccc(Cl)cc1)C1CCN(Cc2ccccc2)CC1; no (0)
3) O=C(NNc1nc(N2CCCC2)nc(N2CCCC2)n1)c1ccccc1; no (0)
4) CCN(C[C@H]1N[C@@](CC)(C(=O)OC)[C@H]2C(=O)N(C)C(=O)[C@@H]12)C(=O)Nc1ccc(F)cc1; no (0)
5) CCCc1ccc(C(=O)[C@@H]2[C@@H](C(C)=O)N3c4ccc(F)cc4C=C[C@@H]3[C@@]23C(=O)Nc2ccccc23)cc1; yes (1)
6) COc1ccc(NC(=O)CNC(=O)Cn2ccc3ccccc3c2=O)c(OC)c1; no (0)
7) O=C(NNC(=O)C1CCC1)c1ccccc1; no (0)
8) O=C(COC(=O)/C=C/c1ccc(OC(F)F)cc1)NC1CCCCC1; no (0)
9) Cc1ccc(CNC(=O)CCN2C(=O)[C@@H]3Cc4ccccc4CN3C2=O)cc1; no (0)
10) O=C(CCC(=O)n1ncc2ccccc21)NCc1ccccc1Cl; no (0)

====

Target: Muscarinic acetylcholine receptor M5 (Homo sapiens) (UniProt P08912)
Assay: human M5 muscarinic receptor positive allosteric modulators, primary screen, CHO-K1 cells, Fluo-8 calcium fluorescence (AID 624038)
Conditions: CHO-K1 hM5, Fluo-8 calcium, ACh EC20 PAM; at 3 µM; stronger effect = higher value; 0% = ACh EC20, 100% = ACh EC100
Out of some 360,000 compounds screened, about 1,100 (0.31%) were called active. The sample as a whole holds a higher share of actives than the screen did.
attributeMeasured: activation (%)

1. O=C(COC(=O)/C=C/c1nc2ccccc2s1)Nc1ccccc1Oc1ccccc1; 1.93
2. CCC(C(=O)NCc1ccc(OC)cc1)n1nc(C)n2c(cc3occc32)c1=O (configuration not stated); 18.4
3. O=C(NNS(=O)(=O)c1c(F)cc(F)c(Cl)c1F)C12CC3CC(CC(C3)C1)C2; -0.38
4. CCC1CCCCN1CCNS(=O)(=O)c1ccc2c(c1)CCN2C(C)=O (configuration not stated); 2.47
5. COC(=O)c1cccc([N+](=O)[O-])c1CS(=O)(=O)c1ccc(C)cc1; -5.08
6. Cc1ccc(C(c2sc3nc(C)nn3c2O)N2CCN(c3ccc(F)cc3)CC2)cc1 (configuration not stated); 42.2
7. O=C(Nc1cccc(C(=O)O)c1)/C(=C\c1ccccc1)NC(=O)c1ccc(Br)o1; -2.27
8. CSc1ncc(C(=O)NCCCc2ccccc2)c(C)n1; -2.95
9. CCCCN(CC)CCNC(=O)c1[nH]c(C)c(C(C)=O)c1C; -11.2
10. COc1ccccc1NC(=O)c1c(Br)cnn1C; 0.59
11. Oc1c(C(c2cccs2)N2CCN(c3ccc(F)cc3)CC2)sc2ncnn12 (configuration not stated); -5.38
12. CCc1nn(CCCC(=O)NCc2ccc(C)cc2)c(=O)c2cc3occc3n12; 2.21
13. CCCCCNC(=O)C1C(=O)Nc2ccccc2C(=O)N1C(C)(C)C (configuration not stated); 7.08
14. Cc1ccc(C(c2sc3nc(C)nn3c2O)N2CCN(c3ccccc3)CC2)cc1 (configuration not stated); 5.14
15. CCN(Cc1nc2ccccc2c(=O)[nH]1)Cc1cc(=O)oc2cc(C)c(C)cc12; -12.3
16. O=C(NNS(=O)(=O)c1ccc(F)cc1)c1cnccn1; -12.5
17. CCC(NC(=O)c1ccccc1NC(=O)c1ccccc1)C(=O)NNC(=O)CSc1nc2ccccc2o1 (configuration not stated); -8.71

====

Molecular target: Muscarinic acetylcholine receptor M5 (Homo sapiens)
Test: human M5 muscarinic receptor positive allosteric modulators, primary screen, CHO-K1 cells, Fluo-8 calcium fluorescence (AID 624038)
Conditions: CHO-K1 hM5, Fluo-8 calcium, ACh EC20 PAM; at 3 µM; 0% = ACh EC20, 100% = ACh EC100
Hit rate of the full screen: of about 360,000 compounds, about 1,100 (0.31%) were called active.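 How the source made its calls: active means activation above the run cutoff, the mean activation of all test compounds plus 3 SD (cut at about 18% in these data); inactive means the rest.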 Many of the other results were omitted from the sample, so actives are more common in it than they were.
Classes used: True for active, False for inactive

1) COc1ccc(C2=NN(C(=O)CSc3nnnn3C)C(c3ccco3)C2)cc1 (centres undefined); False
2) c1ccc(CCc2ccccn2)cc1; False
3) O=C(O)C(CCc1ccccn1)c1ccccc1 (centres undefined); True
4) CCOC(=O)C1=C(C)OC(N)=C(C#N)C1c1cncc(-c2ccc(F)cc2)c1 (centres undefined); False
5) CC(=O)Oc1ccc(-c2cccc(C(=O)N3CCCCC3)c2)cc1; False
6) Cc1cccc(OCC(=O)OCC(=O)Nc2ccc(Cl)cn2)c1; False
7) CCOc1cc(C(C(=O)NCC2CCCO2)N(C(=O)Cn2nnc3ccccc32)c2cccc(OC)c2)ccc1O (centres undefined); True
8) COc1ccccc1N(C)C(=O)c1cc(S(=O)(=O)N2CCc3ccccc32)cn1C; False
9) C=CCOC(=O)c1ccccc1C(=O)OCC=C; False
10) Cc1cc(-n2cnc(-c3cn(C)nc3C)n2)no1; False
11) COc1ccc(C(C(=O)NCC2CCCO2)N(C(=O)Cn2nnc3ccccc32)c2ccc(NC(C)=O)cc2)cc1OC (centres undefined); False
12) CC(N)C12CC3CC(CC(O)(C3)C1)C2 (centres undefined); False
13) CCC(C)NC(=O)c1ccccc1NC(=O)c1ccccc1N(C)S(C)(=O)=O (centres undefined); False
14) CCCNC(=O)COc1coc(CN2CCN(Cc3ccccc3)CC2)cc1=O; False
15) CCCCNC(=O)c1ccccc1NC(=O)C1=C(C)OCCS1; False
16) CCCCNC(=O)c1ccccc1NC(=O)c1ccccc1N(C)S(C)(=O)=O; True
17) COC(=O)CN(C(=S)Nc1ccc(Cl)cc1)C1CC(=O)N(c2ccc(OC)cc2)C1=O (centres undefined); False
18) COC(=O)c1ccc(C)c(NC(=O)C2CC(=O)N(C3CCCC(C)C3C)C2)c1 (centres undefined); False
19) O=C(CNc1cccc(S(=O)(=O)N2CCCCC2)c1)Nc1ccccc1F; False
20) CCOc1ccc(OCc2cccc(C(=O)N(CC)CC)c2)cc1; False
21) COc1ccc(OCc2cccc(C(=O)N3CCCC3)c2)cc1; True
22) Cc1ncn(C23CC4CC(CC(O)(C4)C2)C3)n1; True
23) CCCCc1ccc(NC(=O)NCc2cccnc2)cc1; False
24) CCOC(=O)c1cnc(-n2nc(C)cc2C)nc1NNc1cc(C)nc(-c2ccccc2)n1; False
25) O=C(COc1ccc(Cl)cc1)NCCS(=O)(=O)N1CCN(c2ccc(F)cc2)CC1; False
26) Cc1cccn2c(=O)c3cc(C#N)c(=O)n(CCCN4CCOCC4)c3nc12; False
27) O=C(Nc1ccc(Cl)cn1)Nc1cccs1; True
28) CCCCCCCCCCCCN1C(=O)CSC1c1cccnc1 (centres undefined); True
29) Cc1ccc(C(C(=O)NCc2ccco2)N(CC2CCCO2)C(=O)Cn2nnc3ccccc32)cc1 (centres undefined); False
30) O=S(=O)(NCCc1ccccc1)c1ccccc1; True
31) CC1CN(CCCOc2ccccc2-c2ccccc2)CC(C)O1 (centres undefined); False
32) CCNC(=O)CC1C(=O)N(c2ccc(F)cc2)C(=O)N1Cc1cccs1 (centres undefined); False
33) O=C(CSc1nc2ncccc2[nH]1)Nc1ccc2c(c1)OCCO2; False
34) CC(C)C(=O)Nc1ccc2c(c1)oc1ccccc12; False
35) CCOc1ccc(N2C(=O)CC(N(CCc3ccc(OC)c(OC)c3)C(=S)Nc3ccccc3)C2=O)cc1 (centres undefined); True
36) CC1(C(=O)NS(=O)(=O)c2ccc(Cl)cc2)CCN1C(=O)CC1CCCC1 (centres undefined); False
37) Cc1cc(C)c(OCCN2CC(C)OC(C)C2)c(Br)c1 (centres undefined); True
38) O=C(COC(=O)c1ccco1)Nc1ccc(Cl)cn1; False
39) CCOC(=O)c1cnc2c(c(C)nn2CC)c1Cl; False
